Test system: HeLa cells
assayName: MTT cytotoxicity assay on HeLa cells
Assay type: cell-based, human
reportedConditions: ratio IC50 (Vero)/IC50 (HeLa)
# Selectivity Index (SI) (Vero/HeLa) per record follows
observationType: Selectivity Index (SI) (Vero/HeLa)

                                   molecule   val
0  CC(C)CCn1cnc2c(NCc3ccccc3)nc(NCc3ccccc3)nc21 [Compound 4e]  0.93
1  COc1ccc(CNc2nc(NCc3ccccc3)nc3c2ncn3CC(C)C)cc1 [Compound 4i]  0.39
2  CCCCCn1cnc2c(NCc3ccccc3)nc(NCc3ccccc3)nc21 [Compound 4d]  0.25
3  COc1ccc(CNc2nc(NCc3ccccc3)nc3c2ncn3CCC(C)C)cc1 [Compound 4k]  6.30
4  COc1ccc(CNc2nc(NCc3ccccc3)nc3c2ncn3C(C)C)cc1 [Compound 4g]  1.40
